- procedure-details: BSK_3C_VCAM1: BioMAP Diversity Plus: 3C Assay for Vascular cell adhesion molecule 1 (VCAM1) Biomarker Activity (AID 2282999)
- experimental-parameters: BioMAP 3C HUVEC, VCAM1 ELISA, cytokine-stimulated; actives raise or lower the signal
Activity calls are given as the source filed them. The calls were made as follows: active = hit-call score of the fitted dose curve at least 0.9, where 1 is the maximum; inactive = score below 0.9.
The reply should be one of these categories: T (active), F (inactive)

compound	qualitative-label
COC[C@H](C)N(C(=O)CCl)c1c(C)csc1C	F
CCCCCCCCc1ccc(O)cc1	T
CC1(C)Cc2cccc(O)c2O1	F
CCCCC(CC)CO[N+](=O)[O-] (stereo not given)	F

query: Status in this test for CCOP(=S)(OCC)SCSP(=S)(OCC)OCC ?
result: F

query: Status in this test for C[C@@H]1C[C@@H]([C@H](O)CC2CC(=O)NC(=O)C2)C(=O)[C@@H](C)C1 ?
result: T

query: Status in this test for CCC(C)(C)c1ccc(O)c(C(C)(C)CC)c1 ?
result: T

query: Status in this test for Oc1ccc(-c2ccccc2)cc1 ?
result: F

query: Status in this test for ClC1(Cl)C2(Cl)C3(Cl)C4(Cl)C(Cl)(Cl)C5(Cl)C3(Cl)C1(Cl)C5(Cl)C24Cl (stereo not given) ?
result: F

query: Status in this test for CCNc1nc(NC(C)(C)C)nc(SC)n1 ?
result: F

---

- system-under-test: Ratio of Nucleoli Translocation and Cytoplasm, AR (gene 367)
- procedure-details: UPITT_HCI_U2OS_AR_TIF2_Nucleoli_Cytoplasm_Ratio_Antagonist: University of Pittsburgh U2OS Androgen Receptor-Transcriptional Intermediary Factor 2 (AR-TIF2) Antagonism High Content Imaging Assay for Ratio of Nucleoli Translocation and Cytoplasm (AID 2283999);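 also: antagonists lower the DHT-driven ratio of nucleolar to cytoplasmic red signal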
Records with an inconclusive call do not appear. The source made the active and inactive calls. Rule for the calls: active = hit-call score of the fitted dose curve at least 0.9, where 1 is the maximum; inconclusive = response in the unintended direction; inactive = score below 0.9.
The reply should be one of these categories: active, inactive

Worked examples, 4 molecules total:
molecule	qualitative-label
O=[N+]([O-])c1ccc(O)c([N+](=O)[O-])c1	inactive
COP(=S)(OC)Oc1cc(Cl)c(Cl)cc1Cl	inactive
Clc1ccc(COC(Cn2ccnc2)c2ccc(Cl)cc2Cl)cc1 (stereo not drawn)	inactive
C=CC(=O)OCCCCCC(C)C	inactive

query: Status in this test for CCC(=O)C(CC(C)N(C)C)(c1ccccc1)c1ccccc1 (stereo not drawn) ?
result: inactive

query: Status in this test for c1cc[c]([Hg][c]2ccccc2)cc1 ?
result: active

query: Status in this test for CC(C)c1cccc(C(C)C)c1O ?
result: inactive

query: Status in this test for CC(=O)[O][Hg][c]1ccccc1 ?
result: active

---

- Read-out: Tissue Factor, F3 (gene 2152)
- procedure-details: BSK_CASM3C_TissueFactor: BioMAP Diversity Plus: CASM3C Assay for Tissue Factor Biomarker Activity (AID 2283052);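 also: cell surface tissue factor protein level read by ELISA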
- experimental-parameters: primary human coronary artery smooth muscle cells; actives raise or lower the signal
Calls of active or inactive are those of the source. The calls were made as follows: active = hit-call score of the fitted dose curve at least 0.9, where 1 is the maximum; inactive = score below 0.9.
property-label: AC50

The cases that follow already have their AC50 on record.
compound	AC50
CC(C)(C)c1cc(O)ccc1O	11.2 µM (active)
COP(=S)(OC)Oc1ccc(S(=O)(=O)N(C)C)cc1	inactive
C=CC(=O)OCCCCCC(C)C	inactive
CC(=O)C(Cl)C(=O)N(C)C (stereo not drawn)	7.43 µM (active)
CC(C)(OO)c1ccccc1	inactive

query: Item COP(=S)(OC)Oc1c(Cl)cc(C)cc1Cl has what recorded AC50?
result: 5.88 µM (active)

query: Item BrCCBr has what recorded AC50?
result: inactive

query: Item COC(=O)Cc1ccccc1 has what recorded AC50?
result: inactive

The reported numbers originate from PubChem BioAssay (EPA / NIEHS).
